Molecular target: hASIC3 (Homo sapiens)
Assay: FlexStation assay on HEK293 cells expressing hASIC3
Format: cell-based
Set-up: expressed in transfected cells; host or cells: HEK293 cells
Conditions: FlexStation (Flex), Tables A-F; read-out: Biological Data (IC50 uM) h3 (Flex)
Parameter: IC50. Scope: all listed entries.

// below: answered compounds
[[record]]
smilesdata = "Cc1cc(OC2CCN(Cc3ccccc3)CC2)c2ccccc2n1"
targetsystem = "hASIC3 (Homo sapiens)"
endpointvalue = "5 to 15 µM"

[[record]]
smilesdata = "Clc1ccc2c(N3CCNCC3)ccnc2c1"
targetsystem = "hASIC3 (Homo sapiens)"
endpointvalue = "5 to 15 µM"

[[record]]
smilesdata = "COc1ccc(CN2CCN(c3cc(C)nc4ccccc34)CC2)cc1"
targetsystem = "hASIC3 (Homo sapiens)"
endpointvalue = "10 to 20 µM"

[[record]]
smilesdata = "FC(F)(F)c1ccc2c(OC3CCN(Cc4ccccc4)CC3)ccnc2c1"
targetsystem = "hASIC3 (Homo sapiens)"
endpointvalue = "25 to 35 µM"

[[record]]
smilesdata = "Cc1cc(N2CCN(Cc3ccc4c(c3)OCO4)CC2)c2ccccc2n1"
targetsystem = "hASIC3 (Homo sapiens)"
endpointvalue = "10 to 20 µM"

[[record]]
smilesdata = "CN1CCN(c2nc(-c3ccccc3F)nc3ccccc23)CC1"
targetsystem = "hASIC3 (Homo sapiens)"
endpointvalue = "5 to 15 µM"

[[record]]
smilesdata = "COc1ccc(-c2cc(C(=O)O)c3cc(Cl)ccc3n2)c(O)c1"
targetsystem = "hASIC3 (Homo sapiens)"
endpointvalue = "10 to 20 µM"

[[record]]
smilesdata = "O=C(O)c1cc(-c2ccc(Cl)cc2)nc2ccc(Cl)cc12"
targetsystem = "hASIC3 (Homo sapiens)"
endpointvalue = "15 to 25 µM"


The record that follows has no IC50 shown yet.
Specify reported IC50 for the compound shown: Cc1cc(N2CCNCC2)c2ccccc2n1
5 to 15 µM

* * *

Parameter: IC50. Scope: all listed entries.
Biological target: UniProt:P78348
Sequence (P78348 1-528): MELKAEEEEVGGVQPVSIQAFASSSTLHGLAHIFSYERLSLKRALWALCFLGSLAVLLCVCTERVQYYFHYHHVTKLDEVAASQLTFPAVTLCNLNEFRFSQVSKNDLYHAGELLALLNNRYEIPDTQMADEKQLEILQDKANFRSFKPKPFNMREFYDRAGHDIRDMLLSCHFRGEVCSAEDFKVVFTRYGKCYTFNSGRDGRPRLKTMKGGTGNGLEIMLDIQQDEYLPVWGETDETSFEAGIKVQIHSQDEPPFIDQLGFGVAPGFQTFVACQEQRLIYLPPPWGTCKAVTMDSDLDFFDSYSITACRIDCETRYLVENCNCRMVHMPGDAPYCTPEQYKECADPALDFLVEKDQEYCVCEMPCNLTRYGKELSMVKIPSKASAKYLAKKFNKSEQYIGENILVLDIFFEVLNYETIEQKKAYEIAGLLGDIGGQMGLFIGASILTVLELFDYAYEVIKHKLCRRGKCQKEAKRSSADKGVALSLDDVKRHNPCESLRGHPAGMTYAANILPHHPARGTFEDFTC
Assay: Two-electrode voltage clamp in Xenopus laevis oocytes expressing hASIC1a (OpusExpress)
Assay type: cell-based
Parameters: expressed in transfected cells; host or cells: Xenopus laevis oocytes, nuclear microinjection of cDNA (e.g. in pCDNA3)
Settings: OpusExpress (OX), Tables A-F; h1a printed in some cells only; read-out: Biological Data (IC50 uM) h1a (OX)

// below: answered compounds
[[record]]
compound = "Clc1ccc2c(N3CCNCC3)ccnc2c1 [Compound H, 7-chloro-4-piperazin-1-yl-quinoline]"
targetsystem = "UniProt:P78348"
measurementkind = "IC50"
endpointvalue = "30 to 50 µM"

[[record]]
compound = "COc1ccc2nc(C)cc(OC3CCN(Cc4ccccc4)CC3)c2c1 [Compound 8]"
targetsystem = "UniProt:P78348"
measurementkind = "IC50"
endpointvalue = "> 30 µM"

[[record]]
compound = "Cc1cc(N2CCN(CC3CCCCC3)CC2)c2ccccc2n1 [Compound O]"
targetsystem = "UniProt:P78348"
measurementkind = "IC50"
endpointvalue = "20 to 30 µM"

[[record]]
compound = "Cc1cc(OCCCN(C)Cc2ccccc2)c2ccccc2n1 [Compound 1]"
targetsystem = "UniProt:P78348"
measurementkind = "IC50"
endpointvalue = "> 30 µM"

[[record]]
compound = "Cc1cc(OC2CCN(C)CC2)c2ccccc2n1 [Compound 4]"
targetsystem = "UniProt:P78348"
measurementkind = "IC50"
endpointvalue = "> 30 µM"

[[record]]
compound = "Cc1cc(OC2CCN(Cc3ccccc3)CC2)c2cc(Br)ccc2n1 [Compound 7]"
targetsystem = "UniProt:P78348"
measurementkind = "IC50"
endpointvalue = "10 to 20 µM"

[[record]]
compound = "Cc1cc(N2CCN(CCc3ccccc3)CC2)c2ccccc2n1 [Compound D]"
targetsystem = "UniProt:P78348"
measurementkind = "IC50"
endpointvalue = "> 50 µM"

[[record]]
compound = "CCc1nc(N(C)C2CCN(Cc3ccccc3)CC2)c2ccccc2n1 [Compound 32]"
targetsystem = "UniProt:P78348"
measurementkind = "IC50"
endpointvalue = "15 to 25 µM"


The record that follows has no IC50 shown yet.
Lab note: UniProt:P78348 assay, enter IC50 for Cc1cc(OC2CCN(CC(C)C)CC2)c2ccccc2n1 [Compound 29] here
> 30 µM

* * *

Molecular target: hASIC1a (Homo sapiens)
Test: FlexStation/FLIPR calcium-imaging assay, acid (MES)-induced response in ASIC1a expressing cells
Format: cell-based
Parameters: expressed in transfected cells
Settings: calcium mobilization assay, HEK293, n=3-7; read-out: FPAT-ASIC1a human/HEK293/k21 IC50
measurementKind: IC50

[[record]]
smilesdata = "Brc1ccc(-c2nc(N3CCNCC3)c3ccccc3n2)cc1"
endpointvalue = "> 20 µM"

[[record]]
smilesdata = "Fc1cccc2c(OC3CCN(Cc4ccccc4)CC3)cc(C(F)(F)F)nc12"
endpointvalue = "< 10 µM"


Specify reported IC50 for the compound shown: COc1ccc(C(=O)CN2CCN(c3cc(C)nc4ccccc34)CC2)cc1
< 10 µM

* * *

Parameter: IC50. Scope: all listed entries.
Target: hASIC1a (Homo sapiens)
Assay: Two-electrode voltage clamp in Xenopus laevis oocytes expressing hASIC1a (OpusExpress)
Format: cell-based
Design: expressed in transfected cells; host or cells: Xenopus laevis oocytes, nuclear microinjection of cDNA (e.g. in pCDNA3)
Conditions: Table H; read-out: IC50 (μM) Opus Express (h1a)

[[record]]
smilesdata = "Cc1cc(N2CCN(CC3CCCCC3)CC2)c2ccccc2n1"
measurementkind = "IC50"
endpointvalue = "23.9 µM"


Specify reported IC50 for the molecule shown: COc1ccc(CN2CCN(c3cc(C)nc4ccccc34)CC2)cc1
> 50 µM

Specify reported IC50 for the molecule shown: C=CCOC(=O)N1CCC(Oc2cc(C)nc3ccccc23)CC1
17.1 µM

Specify reported IC50 for the molecule shown: Cc1cc(OC2CCN(Cc3ccccc3)CC2)c2ccccc2n1
1.5 µM

* * *

Target: hASIC3 (Homo sapiens, UniProt Q9UHC3)
Sequence (Q9UHC3 whole entry): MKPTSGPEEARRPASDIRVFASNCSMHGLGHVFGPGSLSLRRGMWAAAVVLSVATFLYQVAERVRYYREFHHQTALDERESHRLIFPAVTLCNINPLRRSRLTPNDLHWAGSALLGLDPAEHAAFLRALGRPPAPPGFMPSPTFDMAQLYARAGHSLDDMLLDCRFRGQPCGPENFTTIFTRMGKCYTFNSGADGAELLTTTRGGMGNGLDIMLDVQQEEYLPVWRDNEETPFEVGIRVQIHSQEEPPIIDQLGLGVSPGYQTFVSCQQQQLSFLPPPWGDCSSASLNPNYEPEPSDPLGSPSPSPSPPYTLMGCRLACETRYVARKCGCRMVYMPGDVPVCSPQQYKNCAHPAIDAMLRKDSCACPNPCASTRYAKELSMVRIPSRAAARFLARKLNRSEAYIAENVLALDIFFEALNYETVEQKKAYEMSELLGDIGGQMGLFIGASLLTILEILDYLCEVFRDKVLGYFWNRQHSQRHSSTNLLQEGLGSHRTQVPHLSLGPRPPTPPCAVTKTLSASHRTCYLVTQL
Test: FlexStation assay on HEK293 cells expressing hASIC3
Assay type: cell-based
Parameters: expressed in transfected cells; host or cells: HEK293 cells
Details: FlexStation (Flex), Tables A-F; read-out: Biological Data (IC50 uM) h3 (Flex)
measurementKind: IC50

[[record]]
smilesdata = "Cc1ccc(-c2nc(Nc3ccc(C(=O)O)cc3)c3cc(Cl)ccc3n2)cc1"
measurementkind = "IC50"
endpointvalue = "20 to 30 µM"

[[record]]
smilesdata = "O=C(O)c1cccc(Nc2nc(-c3ccc(Cl)cc3Cl)nc3ccccc23)c1"
measurementkind = "IC50"
endpointvalue = "> 50 µM"


The record that follows has no IC50 shown yet.
Specify reported IC50 for the compound shown: Cc1cc(N2CCN(CC3CCCCC3)CC2)c2ccccc2n1
5 to 15 µM

* * *

Parameter: IC50. Scope: all listed entries.
Biological target: hASIC1a (Homo sapiens, UniProt P78348)
Assay: Two-electrode voltage clamp in Xenopus laevis oocytes expressing hASIC1a (OpusExpress)
Format: cell-based
Design: expressed in transfected cells; host or cells: Xenopus laevis oocytes, nuclear microinjection of cDNA (e.g. in pCDNA3)
Details: OpusExpress (OX), Tables A-F; h1a printed in some cells only; read-out: Biological Data (IC50 uM) h1a (OX)

Specify reported IC50 for the compound shown: C=CCOC(=O)N1CCC(Oc2cc(C)nc3ccccc23)CC1
> 30 µM

* * *

Tested on: hASIC3 (h3) and/or hASIC1a (h1a)
Construct: EC50 (μM) in one experiment; HEK293
Test: FlexStation/FLIPR assay, channel not marked in the cell
Assay type: cell-based, human
Details: Table H, cells without channel mark; HEK293; read-out: EC50 (μM) Flex/FLIPR
measurementKind: EC50

// below: answered compounds
[[record]]
smilesdata = "Cc1ccc(-c2nc(Nc3ccc(C(=O)O)cc3)c3ccccc3n2)cc1"
endpointvalue = "> 10 µM"

[[record]]
smilesdata = "COc1ccc(CN2CCN(c3cc(C)nc4ccccc34)CC2)cc1"
endpointvalue = "< 10 µM"

[[record]]
smilesdata = "Cc1cc(N2CCN(CC3CCCCC3)CC2)c2ccccc2n1"
endpointvalue = "> 20 µM"

[[record]]
smilesdata = "Cc1cc(N2CCCN(C)CC2)nc2cc(Cl)ccc12"
endpointvalue = "< 10 µM"

[[record]]
smilesdata = "Cc1cc(N2CCN(CCc3ccccc3)CC2)c2ccccc2n1"
endpointvalue = "< 10 µM"

[[record]]
smilesdata = "Cc1cc(OC2CCN(Cc3ccccc3)CC2)c2ccccc2n1"
endpointvalue = "> 10 µM"

[[record]]
smilesdata = "COc1ccc(-c2cc(C(=O)N3CCN(C)CC3)c3ccccc3n2)cc1OC"
endpointvalue = "> 20 µM"


The record that follows has no EC50 shown yet.
Lab note: hASIC3 (h3) and/or hASIC1a (h1a) assay, enter EC50 for COc1ccc(C(=O)CN2CCN(c3cc(C)nc4ccccc34)CC2)cc1 here
< 10 µM

Origin of values: patent US20070197509A1
